Assay: folding stability dG unfold from chymotrypsin proteolysis; higher = more stable
Result type: folding stability dG unfold (kcal/mol)
One number for each entry, in kcal/mol.

INSERT INTO measurements (ordered_residues, unit_name, data_value) VALUES
  ('SAKKIILIKAESEEELKKAIEEAKKLAEEGKKVEIIIETPKGLILIEIDVKTKKIKIKNLETGEEIELESAG [r14_423_TrROS_Hall]', 'kcal/mol', 0.375);

Dear colleague, could you send me folding stability dG unfold for each of the items below? Thanks.
1. SAGGALDAIKNIAEKFGFPEIEDIDIDPDNGWLSFRFRGPEPVYIKIPWKPDKNGNLPVNIEVYPMDDSAGG [r13_410_TrROS]
2. SAGGSAGGSDWRPIKIWYPLDDLEQIKEKIREDGITVEINVQRDPNGKLYAPVTIWVPKGAKPSAGGSAGGS [r12_653_TrROS]
3. SAGGGFDPSKLKKEKTLTLTLPGNSETFTIELYLPEDGESTVVFSYNDKNYELTITKDSITLKPVSSSAGGS [r16_711_JUSTAS]
4. SAGGSAGGSADGNTPVEVTITLTDPKTGAVTTVPVVLPTSVSVEEVAAELAAKFGLTTVTVTSAGGSAGGSA [r18_58_JUSTAS]
5. SKKTIYIVNEDGSIIRFDEETGEITIFNKETGKEVKIKVEKKGNELIITIEVNGKKYKIKIPKGDIIPIKSA [r9_239_TrROS_Hall]
6. SAGGSAGGMKLTLRIEAPREEVERLAKEFEAQGIKVTVKPRPDGRVELTLEIDLPDTDKSLFDPSAGGSAGG [r6_8_TrMRF]
7. SAGMIKIEETDGKLKVTITLKADDPEEITVEMIKEELEKLGLEVAEIKITPEPNEDGQYTVTAEIVVDVSAG [r5_922_TrMRF]

Reply:
[1.88, 1.57, 3.01, 0.521, 4.16, 2.67, 3.06]

Dear colleague, could you send me folding stability dG unfold for each of the items below? Thanks.
1. SAGGSAGSFVNLGPEESEGVIVVTYYNEDGTTTTATYTYFPSPKTVSSNGPVTVPPNYKLSVSPLLSAGGSA [r15_198_JUSTAS]
2. SAGGSAGGSAGMKTVTETEFDPAAPVVTTTTSLVTLPPDGKPSITSTTTTTTAVAAPAAAASAGGSAGGSAG [r3_138_JUSTAS]
3. SASKGSSMITVELTVTVPPSVSIEEVKKQFEEEFPKDAEIKVEATPVTVPANGTPVTTIKVTVTITKKESAG [r14_633_JUSTAS]
4. SAGGMMTIEELKKLPPGAKVGDKIKIRNPATGETFTVTVLPDGRIKIEVDGKIYELPPGAEIVEIEKSAGGS [r8_162_TrROS_Hall]

Reply:
[1.13, 1.41, 1.71, 2.36]

Dear colleague, could you send me folding stability dG unfold for each of the items below? Thanks.
1. SAGGSAGGSAGGSSMKEVTLYVPPGTLDPAVVEKLREEGVKVTVVPVPLSREPDGPPVASAGGSAGGSAGGS [r4_294_JUSTAS]
2. SAGMEKAINLAKEYAKKLGLPLESINVTEIGNSVIIEMKIPEKGETITVNIPIHPDGTISLNIKFEKKKSAG [r5_888_JUSTAS]

Reply:
1. 0.965
2. 2.62

====

Provide the reported folding stability dG unfold of each item.
Assay: folding stability dG unfold from trypsin proteolysis; higher = more stable
Numbers only, in kcal/mol.

Reference set (3 entries):
INSERT INTO measurements (ordered_residues, unit_name, data_value) VALUES
  ('SAGGSAGDKVVTVTATFTTTDPNGNEITIIAPITFLNGEGTAVIDAKAFNPTGELIAEATITVPIGSAGGSA [r15_967_TrMRF]', 'kcal/mol', 1.69),
  ('SAGGLNINLPPGQEIELTLQVTHLFNGGNGDFGSMTHTYEIPIKIKPIPPVPKPEVERDPDGNYKVEDSAGG [r13_401_TrROS]', 'kcal/mol', -0.0612),
  ('SAGGSAGGMYVKIKVTMTADELKKLFPNIKKGEKVTVELVIKVEKAPPVKVEKKKEKKVEVKLKSAGGSAGG [r6_211_TrROS_Hall]', 'kcal/mol', 0.661);

Dear colleague, could you send me folding stability dG unfold for each of the items below? Thanks.
1. SAGGMTTVTTTFTMSSEELKKFLEEKFGREVTKEEIIELIPKEKKIDVSESPQPNGTVKYTITITIEKSAGG [r13_869_JUSTAS]
2. SAGGSAGGSAGPLKIKKLELRKLPDGFVEMTAEFEGPENYTVRLIVRKDDPNKLVLEVFPSAGGSAGGSAGG [r11_618_TrROS_Hall]
3. SAGGSAGGSAGPKPIRIKVKWRNEKDGEKRKVTIPIPPGMPLEELIKNADPNQVRDVEIVSAGGSAGGSAGG [r11_386_TrROS]

Reply:
1: 1.99; 2: 2.07; 3: -0.276

Ask: What measured folding stability dG unfold goes with SAGGSAGGSAGKPIIKVKIIEKKDGYLKIEIEDEKTGETKTITLKPGQKLEIKLELVKEPSAGGSAGGSAGG [r11_738_TrROS_Hall] ?
Reply: 1.92

====

Experiment: folding stability dG unfold (combined trypsin and chymotrypsin); higher = more stable
Provide the reported folding stability dG unfold of each item.
Give bare numbers, in kJ/mol.

INSERT INTO assay_data (ordered_residues, unit_name, data_value) VALUES
  ('SAGGGIVIPVPAETARELLEKLAPDGADVTVESLGSLGGGEVYRATFTDPVFGNTVDIEVLVGPEGGSAGGS [r16_486_TrMRF]', 'kJ/mol', 1.83);

Dear colleague, could you send me folding stability dG unfold for each of the items below? Thanks.
1. SAGGSAGGSAGGMKKPILLPGETEEDVLERIKKLPKDYKVTIEKLDDDKLLVTITSPKLGSAGGSAGGSAGG [r7_662_JUSTAS]
2. SAGGSAGGLHPDEEFVVLFRIDVRARPVSPNAHPELKKKFPNAVIVEAKIDVLILPKEKVKELFSAGGSAGG [r6_830_TrMRF]

Reply:
1. 2.43
2. 13.3

Ask: What measured folding stability dG unfold goes with SMKKNYKIKIEIIDIKIYNKNIPKNKPKYITIKAKITIYYKNKPYKYTIEIKYKIYNGKIYIIGSKIKPESA [r9_270_TrMRF] ?
Reply: 15.3

====

Experiment: folding stability dG unfold from chymotrypsin proteolysis; higher = more stable
Provide the reported folding stability dG unfold of each item.

INSERT INTO assay_data (ordered_residues, data_value) VALUES
  ('SAGGSAGGMLLDEDGNLVVKIKLENGEEFEAKVTEIKDGKITVEVNGKKVEINAKDIELLPEDESAGGSAGG [r6_575_TrROS_Hall]', '2.27 kcal/mol'),
  ('SHMVTVTIYKNGVKVKETEIPLEEVEKMPEEEIIEFAAEIAKKNPGVNYTFTITRPSGPSTVSIDGPEKLKS [r1_477_JUSTAS]', '1.55 kcal/mol'),
  ('SAGGSAGGSAGGMKITLTVPSEEEIEALTPPDAKITEIKKIGKDPVKGLPYYEVVLDPSSAGGSAGGSAGGS [r10_256_JUSTAS]', '0.411 kcal/mol');

Below: the item to evaluate.
Ask: What measured folding stability dG unfold goes with SAGGKKPKVKKVKVKLTLVDPETGEEVEVEAELYELPDGYVVLTVRNKKTGKTYRFVFKDGKLYLEPVSAGG [r13_117_TrROS_Hall] ?
Reply: 4.46 kcal/mol

====

Provide the reported folding stability dG unfold of each item.
Experiment: folding stability dG unfold from trypsin proteolysis; higher = more stable
Numbers only, in kJ/mol.

Reference set (3 entries):
INSERT INTO assay_data (ordered_residues, result_type, unit_name, data_value) VALUES
  ('SAGGSAGGSAGGIIIPPGAKIVSIEKEGDFVKIKVYIPGSKKIETFKFPKGVPIIFEPEASAGGSAGGSAGG [r11_774_TrMRF]', 'folding stability dG unfold', 'kJ/mol', 14.7),
  ('SAEEAAKNFKPIRIRLRDPRGRLYEVERIELTPDGRLLITLRLPNETRTYLIEPDHPFPLPPDLIIEVEGSA [r9_993_TrMRF]', 'folding stability dG unfold', 'kJ/mol', 11.5),
  ('SATGKLAELLEEAFPDRPIASAEILGVEPLPDGRPALRFLLTFEDGSKLVVTVTSADHPEVLEAARENQSAG [r14_143_TrMRF]', 'folding stability dG unfold', 'kJ/mol', 12.7);

Below: the item to evaluate.
Ask: What measured folding stability dG unfold goes with SAGGSAGGSFRIKEIEYKPPKGMIEVEIEFPNGRPIKIHINPDEGWDPIYFGGKPIFPIRIEPSAGGSAGGS [r12_789_TrROS] ?
Reply: -0.864

====

Experiment: folding stability dG unfold from trypsin proteolysis; higher = more stable
Result type: folding stability dG unfold (kcal/mol)
One number for each entry, in kcal/mol.

Dear colleague, could you send me folding stability dG unfold for each of the items below? Thanks.
1. SAGGSAGGSLDPGEEVKIEITDWHPPNGYYRIKIEFPNGPPIDIWMPPDDPQQMKEQAKDLIKSAGGSAGGS [r20_167_TrROS]
2. SAGGSAGGSAGGDWKMIEFYIPIEPDEPITIEIPDGVRIQIWRVDGYYKVTIMIPLEDISAGGSAGGSAGGS [r10_355_TrROS]
3. SAGGSAPRIRVHFWNPNTGQWHHIPVERLKKAIDKNPPGEELEFPIPGYPVKVQVEPDDGTIWIRMSAGGSA [r15_350_TrROS]
4. SAGGSAGGSAMVTIAFPDGTVVEIPASLSEEEVEAEAERLAKERAAGVRPVDVTVESIEPPGSAGGSAGGSA [r18_213_JUSTAS]

Reply:
[-0.725, 2.42, 1.01, 0.356]
